- TARGET_ENTITY: human Kv 1.3 (human) (UniProt P22001)
- Sequence (P22001 whole entry): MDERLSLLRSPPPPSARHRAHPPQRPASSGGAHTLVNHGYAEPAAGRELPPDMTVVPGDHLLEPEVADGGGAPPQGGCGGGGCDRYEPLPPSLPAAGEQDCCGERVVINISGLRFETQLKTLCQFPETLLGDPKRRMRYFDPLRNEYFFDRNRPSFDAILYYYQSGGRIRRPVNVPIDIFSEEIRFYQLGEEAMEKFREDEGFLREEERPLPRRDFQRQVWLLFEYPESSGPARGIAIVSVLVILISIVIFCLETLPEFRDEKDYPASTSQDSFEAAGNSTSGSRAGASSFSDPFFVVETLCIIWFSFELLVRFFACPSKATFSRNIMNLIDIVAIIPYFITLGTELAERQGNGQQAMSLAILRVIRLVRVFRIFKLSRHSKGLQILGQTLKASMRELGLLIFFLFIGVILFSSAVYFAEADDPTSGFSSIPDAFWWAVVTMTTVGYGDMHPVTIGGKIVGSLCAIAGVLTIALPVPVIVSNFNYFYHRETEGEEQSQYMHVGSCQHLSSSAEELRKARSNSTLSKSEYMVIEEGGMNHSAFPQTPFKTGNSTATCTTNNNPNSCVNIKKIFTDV
- ASSAY_TEXT: cell-based or functional assay
PROPERTY_MEASURED: IC50, inhibition of huKv1.3 currents (QPatch, CHO cells) (nM)
Express your answer in nM, writing the number without its unit.

get_value(item= KB_A07_Kaliotoxin (KTX) (antibody, V domains shown) VH: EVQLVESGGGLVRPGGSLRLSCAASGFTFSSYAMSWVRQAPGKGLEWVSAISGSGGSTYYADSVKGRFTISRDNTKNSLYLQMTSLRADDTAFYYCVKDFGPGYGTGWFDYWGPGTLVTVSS VL: DIQMTQSPSSLSASVGDRVTITCRASQSISSYLNWYQQKPGKAPKLLIYAAGVGVEINVKCSGSPQCLKPCKDAGMRFGKCMNRKCHCTPKSRSGVPSRFSGSGSGTDFTLTISSLQPEDFATYYCQQGASPPYTFGQGTKVEIKR , readout=IC50, inhibition of huKv1.3 currents (QPatch, CHO cells)) returns 900

Hello, the source for this data is patent US20260043020A1, in case you need it.
